Test system: Bacillus subtilis
Assay: Antimicrobial activity against Bacillus subtilis MTCC 441 by broth microdilution technique
Type: functional
MEASURE: MIC50 (µg/mL)
Write the value in µg/mL as a bare number.

Recorded MIC50 (compound O=C(c1cnn(-c2ccc(F)c(F)c2)c1)c1cc(Cl)ccc1O ): 500

Recorded MIC50 (compound O=C(O)c1cn(C2CC2)c2cc(N3CCNCC3)c(F)cc2c1=O [CIPROFLOXACIN] ): 50

Recorded MIC50 (compound O=C(c1cnn(-c2ccc(F)c(F)c2)c1)c1cc(F)ccc1O ): 62.5

Recorded MIC50 (compound Cc1cc(C)c(O)c(C(=O)c2cnn(-c3ccc(F)c(F)c3)c2)c1 ): 500

Recorded MIC50 (compound Cc1ccc2nc(-c3cnn(-c4ccc(F)c(F)c4)c3)oc2c1 ): 25

Alright, here's another compound for you.
Recorded MIC50 (compound O/N=C(/c1cnn(-c2ccc(F)c(F)c2)c1)c1cc(Br)ccc1O ): 1000
